These entries and their values trace back to PubChem BioAssay.

Recorded composite z-score values for a group of molecules are listed next.
System: Lefty1
Test: Lefty1 binders on small-molecule microarrays, primary screen, biochemical, small-molecule microarray, 635/667 nm fluorescence (AID 1139)
Settings: small-molecule microarray binding, fluorescence 635/667; higher = more signal
Could you keep your reply to the number by itself?

COc1ccc([Si](C)(C)[C@@H]2[C@@H](CCn3cc([C@H](O)c4ccccc4)nn3)O[C@]3(C(=O)N(Cc4cccc(N5C(=O)c6cccc7cccc5c67)c4)c4ccccc43)[C@H]2C)cc1 :: 0.199
NCCCCCNC(=O)[C@H]1C[C@H]2C(=O)N[C@@H](Cc3ccccc3)C(=O)N2[C@H]1c1ccc(O)cc1 :: 0.765
C=C[C@@H](OC)[C@H](OC(=O)Nc1ccc(SC)cc1)c1ccc(OCCO)cc1 :: 0.545

Ask: Reported composite z-score for COCCOC(=O)N1C(=O)[C@@]2(c3cc(C#CCNC(N)=O)ccc31)[C@H](c1ccc(O)cc1)N1[C@H](c3ccccc3)[C@H](c3ccccc3)OC(=O)[C@H]1[C@@H]2C(=O)N1CCN(c2ncccn2)CC1 : what is it?
Reply: 0.707

Ask: Reported composite z-score for O=C1O[C@H](c2ccccc2)[C@H](c2ccccc2)N2[C@H]1[C@@H](C(=O)N1CCCCCCC1)[C@]1(C(=O)Nc3ccc(C#CC4(O)CCCCCC4)cc31)[C@H]2c1ccccc1OCCO : what is it?
Reply: 1.92

Ask: Reported composite z-score for COc1ccc(NC(=O)O[C@H]2[C@@H]3OC(=O)[C@H](Cc4cccc(Br)c4)C/C=C/C[C@@H](Cc4cccc(Br)c4)C(=O)O[C@H]3[C@@H](OC)O[C@@H]2CO)cc1 : what is it?
Reply: 1.16

Ask: Reported composite z-score for CC(C)[C@H]1NC(=O)[C@@]23C(=O)N[C@@H](Cc4ccccc4)C2[C@H](C)[C@@]2(C)O[C@H]2C3/C=C/CCC/C=C/CNC(=O)[C@H](Cc2ccccc2)NC1=O (stereo partly specified) : what is it?
Reply: 1.03

Ask: Reported composite z-score for C=CCOC(=O)[C@H]1[C@@H]2C(=O)O[C@@H](c3ccccc3)[C@@H](c3ccccc3)N2[C@@H](c2ccc(OCCOC(=O)[C@H]3C[C@H]4C(=O)N[C@@H](CCCCNC(C)=O)C(=O)N4[C@H]3c3cccc(OCCO)c3)cc2)[C@]12C(=O)Nc1ccc(I)cc12 : what is it?
Reply: 1.55

====

Assay: small-molecule binders of probe aNOTCH2, primary screen, biochemical, small-molecule microarray, 635/667 nm fluorescence (AID 1121);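 further: score merges feature fluorescence read at 667 nm with its signal to noise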
Settings: higher = more signal
Recorded composite z-score values for a group of molecules are listed next.
Could you keep your reply to the number by itself?

C=C[C@H](C)[C@H](OC(=O)Nc1ccc(OC)cc1)c1ccc(OCCO)cc1 :: -0.209
CCCNC(=O)[C@@]1(C)c2ccccc2C(=O)N(Cc2ccccc2)[C@H]1c1ccc(CO)cc1 :: 0.0313
C=CCC(OC(C)=O)[C@@H]1[C@@H](N(Cc2ccc(-c3cccc(C(F)(F)F)c3)o2)C(=O)Cc2ccc(OC)cc2)c2cc(OCCCO)ccc2N1C(=O)Cc1ccc2ccccc2c1 (stereo partly drawn) :: -0.14

Ask: Reported composite z-score for COC(=O)C1=CC(CCCO)=CC(C)N(Cc2cccc(OC(F)(F)F)c2)C=C1C(=O)OC (stereo not drawn) : what is it?
Reply: -0.0743

Ask: Reported composite z-score for CCOC(=O)C[C@H]1[C@H](OC(=O)c2cc3ccccc3oc2=O)[C@@H](NC(=O)c2ccc3ccccc3c2)c2cc(OCCCO)ccc2N1C(=O)Cc1ccc(OC)cc1 : what is it?
Reply: -0.0131

Ask: Reported composite z-score for CC(C)CNC(=O)[C@@]1(c2ccc([N+](=O)[O-])cc2)CC(=O)N(C2CCCCC2)[C@@H]1c1ccc(CO)cc1 : what is it?
Reply: -0.123

Ask: Reported composite z-score for O=C1C[C@@](C(=O)NCC(F)(F)F)(c2ccc([N+](=O)[O-])cc2)[C@@H](c2ccc(CO)cc2)N1CC12CC3CC(CC(C3)C1)C2 : what is it?
Reply: 0.0345

Ask: Reported composite z-score for CCC(CC)C(O)C1C=CC2C(=O)N(c3ccccc3)C(=O)C2N1Nc1ccc([N+](=O)[O-])cc1 (stereo not drawn) : what is it?
Reply: 0.125

Ask: Reported composite z-score for CCOC(=O)C1=CCC(c2ccccc2)N(S(=O)(=O)c2ccc([N+](=O)[O-])cc2)C1 (stereo not drawn) : what is it?
Reply: -0.108

Ask: Reported composite z-score for COC(=O)[C@@]1(Cc2ccc(F)cc2)[C@H]2c3cc(C(=O)N(C)C)n(Cc4c(CO)[nH]cc(C)c4=O)c3C[C@H]2CN1C(=O)c1ccccc1 : what is it?
Reply: 0.224

Ask: Reported composite z-score for COc1cc2c(cc1O)C(c1cccs1)N(Cc1sc3ccccc3c1Cl)CC2 (stereo not drawn) : what is it?
Reply: 0.0294

Ask: Reported composite z-score for Nc1cc(Br)ccc1C(=O)O : what is it?
Reply: -0.117

Ask: Reported composite z-score for [N-]=[N+]=NCc1ccccc1[C@@H]1OC(c2ccc(OCCCO)cc2)=N[C@]1(Cc1ccccc1N=[N+]=[N-])C(=O)N1CCCCC1 : what is it?
Reply: -0.116

Ask: Reported composite z-score for C[C@]1(C(=O)NCCN2CCOCC2)c2ccccc2C(=O)N(Cc2cc(F)cc(C(F)(F)F)c2)[C@H]1c1ccc(CO)cc1 : what is it?
Reply: -0.0928

Ask: Reported composite z-score for NCCCCCNC(=O)[C@H]1C[C@H]2C(=O)N[C@@H](Cc3ccccc3)C(=O)N2[C@H]1c1ccc(O)cc1 : what is it?
Reply: 0.197

Ask: Reported composite z-score for COc1ccc([Si](C)(C)[C@H]2[C@H](CCO)O[C@@]3(C(=O)N(Cc4ccccc4)c4ccc(N5C(=O)c6ccccc6Oc6ccccc65)cc43)[C@@H]2C)cc1 : what is it?
Reply: -0.106

Ask: Reported composite z-score for [N-]=[N+]=NCc1ccccc1[C@@H]1OC(c2ccc(OCCCO)cc2)=N[C@]1(Cc1ccccc1)C(=O)NCCN1CCOCC1 : what is it?
Reply: 0.128

Ask: Reported composite z-score for CCOC(=O)C1=CC[C@@H](c2ccccc2)N(S(=O)(=O)c2ccc(C)cc2)[C@H]1c1cccc(OC)c1 : what is it?
Reply: 0.137

Ask: Reported composite z-score for COCCCNC(=O)[C@@]1(c2ccc([N+](=O)[O-])cc2)CC(=O)N(CC23CC4CC(CC(C4)C2)C3)[C@@H]1c1ccc(CO)cc1I : what is it?
Reply: -0.0561

Ask: Reported composite z-score for C=CCNC(=O)[C@H]1[C@@H]2C(=O)O[C@@H](c3ccccc3)[C@@H](c3ccccc3)N2[C@@H](c2ccc(O)cc2)[C@]12C(=O)N(C(=O)OCCOC)c1ccc(C#CCC(C(=O)OC)C(=O)OC)cc12 : what is it?
Reply: -0.154

Ask: Reported composite z-score for COCCOC(=O)N1C(=O)[C@@]2(c3cc(C#CC4(O)CCCCCC4)ccc31)[C@H](C(=O)N1CCN(c3ncccn3)CC1)[C@H]1C(=O)O[C@H](c3ccccc3)[C@H](c3ccccc3)N1[C@@H]2c1ccccc1OCCO : what is it?
Reply: -0.0826

Ask: Reported composite z-score for COc1ccc(C#Cc2ccc3c(c2)[C@]2(C(=O)N3)[C@H](C(=O)N3CCCCCCC3)[C@H]3C(=O)O[C@H](c4ccccc4)[C@H](c4ccccc4)N3[C@@H]2c2ccc(O)cc2)cc1 : what is it?
Reply: 0.0488

Ask: Reported composite z-score for [N-]=[N+]=NC[C@H](Cc1ccccc1)NC(=O)c1ccccc1 : what is it?
Reply: -0.0783

Ask: Reported composite z-score for C=CCC(OC(C)=O)[C@@H]1[C@@H](N(Cc2cccc3ccccc23)C(=O)c2cccc3ccccc23)c2cc(OCCCO)ccc2N1C(=O)c1ccc2ccccc2c1 (stereo partly drawn) : what is it?
Reply: -0.0883

Ask: Reported composite z-score for CC(C)C[C@@H]1NC(=O)CNC(=O)[C@@]23C(=O)N[C@@H](Cc4ccccc4)C2[C@H](C)[C@@]2(C)O[C@H]2C3/C=C/C/C=C\CNC1=O (stereo partly drawn) : what is it?
Reply: -0.102

====

Assay: inhibitors of hydroxyurea-induced Chk1 phosphorylation, primary screen, imaging, HeLa, phospho-Chk1 antibody, percent positive cells (AID 1186)
Conditions: hydroxyurea-induced phospho-Chk1 immunofluorescence imaging, higher = more signal
result type: z-score
Could you keep your reply to the number by itself?

CN1C(=O)C2C(C1=O)C1C=C(CCCO)C2C(c2cccs2)N1Cc1cc2c(cc1Br)OCO2 (centres undefined) :: 0.214
CCCNC(=O)[C@@]1(Sc2ccc(C)cc2)CC(=O)N(C(C)C)[C@@H]1c1ccc(CO)cc1I :: 0.366
CC(C)c1ccc(NN2C(C(O)Cc3ccccc3)C=CC3C(=O)N(c4ccccc4)C(=O)C32)cc1 (centres undefined) :: 0.656
Cc1cccc([C@H]2C[C@H]3C(Br)=C[C@@H]2C(=O)[C@]32CO2)c1 :: 0.139
CN1C(=O)C2C=CC(C(O)c3ccc(I)cc3)N(Nc3ccccc3)C2C1=O (centres undefined) :: 0.178

// moving on: another record for z-score
Ask: Reported z-score for CCOC(=O)C[C@H]1[C@H](OC(=O)c2cc3ccccc3oc2=O)[C@@H](NC(=O)c2ccc3ccccc3c2)c2cc(OCCCO)ccc2N1C(=O)Cc1ccc(OC)cc1 : what is it?
Reply: 0.204
